Listing: MIC of selected compounds
# System: Pseudomonas aeruginosa
# protocol.description: In vitro antimicrobial activity against Pseudomonas aeruginosa ATCC 27853 strain
# Assay type: functional
# recorded.conditions: Pseudomonas aeruginosa, ATCC 27853; read-out: MIC

# compound, MIC / µg/mL
rows = [
    ("C[C@H](N)C(=O)NC[C@H]1OCC[C@H]1SC1=C(C(=O)O)N2C(=O)[C@H]([C@@H](C)O)C2[C@H]1C (some centres undefined)", 64),
    ("CC[C@@H](C)[C@@H](N)C(=O)NC[C@H]1OCC[C@H]1SC1=C(C(=O)O)N2C(=O)[C@H]([C@@H](C)O)C2[C@H]1C (some centres undefined)", 64),
    ("C[C@H]1C(S[C@@H]2CCO[C@@H]2CNC(=O)[C@H](N)Cc2ccccc2)=C(C(=O)O)N2C(=O)[C@H]([C@@H](C)O)C12 (some centres undefined)", 64),
    ("C[C@@H](N)C(=O)NC[C@@H]1C[C@H](SC2=C(C(=O)O)N3C(=O)[C@H]([C@@H](C)O)C3[C@H]2C)CO1 (some centres undefined)", 32),
    ("C[C@H]1C(S[C@@H]2CCO[C@@H]2CNC(=O)[C@@H](N)Cc2ccccc2)=C(C(=O)O)N2C(=O)[C@H]([C@@H](C)O)C12 (some centres undefined)", 64),
    ("C[C@@H](N)C(=O)NC[C@@H]1C[C@@H](SC2=C(C(=O)O)N3C(=O)[C@H]([C@@H](C)O)C3[C@H]2C)CO1 (some centres undefined)", 32),
    ("C[C@@H](N)C(=O)NC[C@H]1COC[C@H]1SC1=C(C(=O)O)N2C(=O)[C@H]([C@@H](C)O)C2[C@H]1C (some centres undefined)", 8),
    ("C[C@H]1C(SC2COC(CN)C2)=C(C(=O)O)N2C(=O)[C@H]([C@@H](C)O)C12 (stereo in doubt; trans)", 4),
    ("C[C@H]1C(S[C@H]2COC[C@H]2CN)=C(C(=O)O)N2C(=O)[C@H]([C@@H](C)O)C12 (some centres undefined)", 16),
]

----------
# Test system: Acinetobacter calcoaceticus
# protocol.description: In vitro antimicrobial activity against Acinetobacter calcoaceticus GC 756 strain
# Format: functional
# recorded.conditions: Acinetobacter calcoaceticus; read-out: MIC

# molecule, MIC [µg/mL]
data = [
    ("C[C@H]1C(S[C@H]2COC[C@H]2CN)=C(C(=O)O)N2C(=O)[C@H]([C@@H](C)O)C12 (some centres not stated)", 2),
    ("C[C@@H](N)C(=O)NC[C@@H]1C[C@H](SC2=C(C(=O)O)N3C(=O)[C@H]([C@@H](C)O)C3[C@H]2C)CO1 (some centres not stated)", 8),
    ("C[C@H]1C(S[C@@H]2CCO[C@@H]2CNC(=O)CN)=C(C(=O)O)N2C(=O)[C@H]([C@@H](C)O)C12 (some centres not stated)", 8),
    ("C[C@@H](O)[C@H]1C(=O)N2C(C(=O)O)=C(S[C@@H]3CCO[C@@H]3CN)[C@H](C)[C@H]12", 2),
    ("C[C@H]1C(S[C@@H]2CCO[C@@H]2CNC(=O)[C@@H](N)Cc2ccccc2)=C(C(=O)O)N2C(=O)[C@H]([C@@H](C)O)C12 (some centres not stated)", 32),
    ("C[C@@H](O)[C@H]1C(=O)N2C(C(=O)O)=C(SCCNC=N)C[C@H]12.O", 0.25),
    ("C[C@H]1C(S[C@@H]2COC[C@@H]2CN)=C(C(=O)O)N2C(=O)[C@H]([C@@H](C)O)C12 (some centres not stated)", 16),
]

----------
Listing: MIC of selected molecules
# Tested on: Escherichia coli
# protocol.description: In vitro antimicrobial activity against Escherichia coli GC 1792 strain
# Format: functional
# recorded.conditions: Escherichia coli; read-out: MIC
quantity.measured: MIC

# molecule, observed.measurement
records = [
    ("C[C@@H](N)C(=O)NC[C@H]1COC[C@H]1SC1=C(C(=O)O)N2C(=O)[C@H]([C@@H](C)O)C2[C@H]1C (stereo partly specified)", "< 0.06 µg/mL"),
    ("C[C@@H](O)[C@H]1C(=O)N2C(C(=O)O)=C(S[C@@H]3CCO[C@@H]3CN)[C@H](C)[C@H]12", "≤ 0.06 µg/mL"),
    ("C[C@@H](N)C(=O)NC[C@H]1OCC[C@H]1SC1=C(C(=O)O)N2C(=O)[C@H]([C@@H](C)O)C2[C@H]1C (stereo partly specified)", "≤ 0.06 µg/mL"),
    ("C[C@H]1C(S[C@H]2COC[C@H]2CN)=C(C(=O)O)N2C(=O)[C@H]([C@@H](C)O)C12 (stereo partly specified)", "< 0.06 µg/mL"),
    ("C[C@H]1C(S[C@@H]2CCO[C@@H]2CNC(=O)CN)=C(C(=O)O)N2C(=O)[C@H]([C@@H](C)O)C12 (stereo partly specified)", "< 0.06 µg/mL"),
    ("C[C@@H](O)[C@H]1C(=O)N2C(C(=O)O)=C(SCCNC=N)C[C@H]12.O", "< 0.06 µg/mL"),
]
